Molecular target: MgFur E108A/H125A (metal site 2 mutant) E108A;H125A (Magnetospirillum gryphiswaldense MSR-1) (UniProt V6F4Q0)
Sequence: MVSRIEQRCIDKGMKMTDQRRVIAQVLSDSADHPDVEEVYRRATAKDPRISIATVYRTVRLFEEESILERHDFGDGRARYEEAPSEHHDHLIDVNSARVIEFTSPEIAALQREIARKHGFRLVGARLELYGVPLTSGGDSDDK
Test: SPR
Details: 1 mM Mn2+, SPR: 20 mM Tris-HCl pH 8.0, 150 mM NaCl, 1 mM MnCl2, 0.005% Tween20, 25 C, EMSA: 40 mM HEPES pH 7.0, 125 mM NaCl, 2 mM FeSO4/MnCl2/EDTA, footprinting: …
measure_name: Kd

TTAATCGCAACTCATTCGCAATTGC (double strand) [feoAB1 operator (SPR)] ... 272 nM
